Test system: GST-UtroUp (six zinc finger artificial transcription factor) (synthetic construct)
TEST PROTOCOL: EMSA
STUDY CONDITIONS: 50 uM ZnCl2; 1-90 nM protein; mean of five experiments; EMSA: 20 mM Hepes pH 7.5, 0.5 mM DTT, 100 mM NaCl, 50 uM ZnCl2, 50 ug/ml BSA, 100 ng poly(dI-dC), 0.05% NP40, 5% glycerol; temperature not stated
pKd: −log10 of the molar value.

{"columns": ["ITEM SEQUENCE", "pKd"],
 "data": [
  ["ATTAAGCCGGGCTGCTGCGGGCTGGGAGTATGATCC (double strand) [WT UtroUp (UtroUp-Jazz) DNA target]", 8.46]
]}
